biological target: human Plasma Kallikrein (KLKB1) (Homo sapiens (Human), UniProt P03952); experiment: Inhibition of KLKB1 endpoint assay; settings: fluorogenic substrate H-Pro-Phe-Arg-AMC, 1 hr at Room Temperature, read-out: IC50 measurements for the inhibition of human Plasma Kallikrein (KLKB1)
Sequence (P03952 391-638): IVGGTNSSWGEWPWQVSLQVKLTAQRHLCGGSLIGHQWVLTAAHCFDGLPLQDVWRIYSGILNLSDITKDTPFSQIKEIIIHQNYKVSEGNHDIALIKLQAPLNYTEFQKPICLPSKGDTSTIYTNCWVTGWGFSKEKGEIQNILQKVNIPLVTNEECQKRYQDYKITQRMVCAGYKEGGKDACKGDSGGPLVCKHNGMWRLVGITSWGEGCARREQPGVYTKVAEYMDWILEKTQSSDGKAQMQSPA
Sequence (P03952 20-390 partner): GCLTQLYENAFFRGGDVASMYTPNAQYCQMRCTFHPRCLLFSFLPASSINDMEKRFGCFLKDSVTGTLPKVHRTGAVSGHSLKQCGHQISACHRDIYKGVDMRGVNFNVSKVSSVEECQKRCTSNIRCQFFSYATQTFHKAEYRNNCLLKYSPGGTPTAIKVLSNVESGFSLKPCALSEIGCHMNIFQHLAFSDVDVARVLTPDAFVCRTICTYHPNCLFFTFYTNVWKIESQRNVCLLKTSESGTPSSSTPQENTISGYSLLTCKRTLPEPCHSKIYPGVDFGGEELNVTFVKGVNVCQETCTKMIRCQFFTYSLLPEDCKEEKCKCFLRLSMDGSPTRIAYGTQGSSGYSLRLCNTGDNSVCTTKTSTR
pIC50: −log10 of the molar value.
recorded.endpoint: pIC50

Solved cases below.
compound: Nc1nccc2c1CC[C@H]2NC(=O)c1cn(Cc2ccc(N3CC4CC4C3)nc2)nn1 (stereo partly drawn)
recorded.endpoint: pIC50
result: 8.70
--
compound: Nc1ccc2c(n1)CC[C@H]2NC(=O)c1cn(Cc2ccc(N3CC4CC4C3)nc2)nn1 (stereo partly drawn)
recorded.endpoint: pIC50
result: 7.62
--
compound: Cc1cc(N)nc2c1C(NC(=O)c1cn(Cc3ccc(N4CCN5CCCCC5C4=O)cc3)nn1)CC2 (stereo not drawn)
recorded.endpoint: pIC50
result: 5.59
--
compound: Cc1cc(Cn2cc(C(=O)N[C@@H]3CCc4c3ccnc4N)nn2)ccc1N1CCN2CCCC2C1=O (single isomer, unassigned) [Example 59]
recorded.endpoint: pIC50
result: 5.66
--
compound: CC(c1ccc(N2CC3CC3C2)nc1)n1cc(C(=O)N[C@@H]2CCc3c2ccnc3N)cn1 (single isomer, unassigned) [Example 73]
recorded.endpoint: pIC50
result: 8.22
--
compound: CC(c1ccc(N2CC3CC3C2)nc1)n1cc(C(=O)N[C@@H]2CCc3c2ccnc3N)cn1 (stereo partly drawn) [Example 71]
recorded.endpoint: pIC50
result: 8.05
--
compound: Nc1nccc2c1CC[C@H]2NC(=O)c1cnn(Cc2cnc(N3CC4CC4C3)cc2C(F)(F)F)c1 (stereo partly drawn)
recorded.endpoint: pIC50
result: 9.00
--
compound: Cc1cc(Cn2cc(C(=O)NC3CCc4nc(N)ccc43)nn2)ccc1N1CCN2CCCCC2C1=O (stereo not drawn)
recorded.endpoint: pIC50
result: 5.92

1: Nc1nccc2c1CCC2NC(=O)c1cnn(Cc2ccc(CN3C[C@H]4C[C@H]4C3=O)cc2)c1 (single isomer, unassigned) [Example 55]
2: Nc1cc2c(cn1)CCC2NC(=O)c1cnn(Cc2ccc(CN3CC4CC4C3=O)cc2)c1 (stereo not drawn)
// pick larger pIC50 from pair: 1 vs 2 Write down the label of the entry you select.
2
(2: 7.15, 1: 6.31)

I: Nc1ccc2c(n1)CC[C@H]2NC(=O)c1cnn(Cc2cnc(N3CC4CC4C3)nc2)c1 (stereo partly drawn)
II: Cc1cc(N2CC3CC3C2)ncc1Cn1cc(C(=O)N[C@@H]2CCc3c2ccnc3N)cn1 (stereo partly drawn)
III: Nc1nccc2c1CC[C@H]2NC(=O)c1cn(Cc2ccc(N3CCN4C(=O)COCC4C3)nc2)nn1 (stereo partly drawn)
Form: Sort by [pIC50] Order [ ascending ] Use the labels to give the requested order.
III, I, II

1: Nc1ccc2c(n1)CC[C@H]2NC(=O)c1cnn(Cc2ccc(CN3C[C@@H]4C[C@@H]4C3=O)cc2)c1
2: Nc1ccc2c(n1)CCC2NC(=O)c1cn(Cc2ccc(C3CC4CCCN4C3=O)cc2)nn1 (stereo not drawn)
3: Nc1ccc2c(n1)CC[C@H]2NC(=O)c1cnn(Cc2cnc(N3CC4CC4C3)cn2)c1 (stereo partly drawn)
Rank ascending by pIC50. Answer by listing the labels in the order asked for.
2, 3, 1
(2: 5.66, 3: 7.47, 1: 7.77)

====

biological target: human Plasma Kallikrein (KLKB1) (Homo sapiens (Human), UniProt P03952); assay: Inhibition of KLKB1 endpoint assay; conditions: fluorogenic substrate H-Pro-Phe-Arg-AMC, 1 hr at Room Temperature, read-out: IC50 measurements for the inhibition of human Plasma Kallikrein (KLKB1)
pIC50: −log10 of the molar value.
recorded.endpoint: pIC50

Solved entries:
compound: Nc1ccc2c(n1)CCC2NC(=O)c1cn(Cc2ccc(CN3CC4CC4C3=O)cc2)nc1C(F)(F)F (stereo not shown) [Example 4]
pIC50: 7.20
--
compound: Nc1ccc2c(n1)CC[C@H]2NC(=O)c1cnn(Cc2ccc(CN3C[C@H]4C[C@H]4C3=O)cc2)c1 [Example 1]
pIC50: 6.28

a: Cc1cc(N2CC3CC3C2)ncc1Cn1cc(C(=O)N[C@@H]2CCc3nc(N)ccc32)nn1 (stereo partly shown) [Example 46]
b: Nc1nccc2c1CC[C@H]2NC(=O)c1cnn(Cc2cnc(N3CC4CC4C3)nc2)c1 (stereo partly shown) [Example 80]
c: Nc1ccc2c(n1)CC[C@H]2NC(=O)c1cn(Cc2cnc(N3CC4CC4C3)cc2C(F)(F)F)nn1 (stereo partly shown) [Example 43]
d: Nc1nccc2c1CC[C@H]2NC(=O)c1cnn(Cc2ccc(CN3CC4CC4C3=O)c(C(F)(F)F)c2)c1 (single isomer, unassigned) [Example 53]
Rank the items in ascending order with respect to pIC50. A ranking is expressed here by listing the labels in the requested order.
a, c, b, d
(a: 7.42, c: 7.89, b: 8.52, d: 9.00)

====

Target: human Plasma Kallikrein (KLKB1) (Homo sapiens (Human))
Assay: Inhibition of KLKB1 endpoint assay
Details: fluorogenic substrate H-Pro-Phe-Arg-AMC, 1 hr at Room Temperature, read-out: IC50 measurements for the inhibition of human Plasma Kallikrein (KLKB1)
Method: […] Subsequently, PPACK II (Calbiochem) was added as a stop solution to achieve a final concentration of 1 μM and fluorescence was measured using an Envision Reader (PerkinElmer) with the wavelength excitation setting of 355 nm and the wavelength emission setting of 460 nm. […]
recorded.endpoint: IC50 (nM)

compound: Nc1nccc2c1CC[C@H]2NC(=O)c1cn(Cc2ccc(N3CC(=O)N4CCCC4C3)nc2)nn1 (stereo partly shown)
measurement.target: human Plasma Kallikrein (KLKB1) (Homo sapiens (Human))
IC50 [nM]: 390

1: Nc1nccc2c1CC[C@H]2NC(=O)c1cnn(Cc2ccc(N3CC4CCC4C3)nc2)c1 (stereo partly shown)
2: Nc1ccc2c(n1)CCC2NC(=O)c1cn(Cc2ccc(CN3CCN4CCCC4C3=O)cc2)nn1 (stereo not shown)
3: Nc1ccc2c(n1)CC[C@H]2NC(=O)c1cn(Cc2cnc(N3CC4CC4C3)nc2)nc1C(F)(F)F (stereo partly shown)
Rank the 3 compounds: largest IC50 first, smallest last. Put the labels in the requested order and write them down.
2, 3, 1
(2: 5900 nM, 3: 23 nM, 1: 8 nM)

====

biological target: human Plasma Kallikrein (KLKB1) (Homo sapiens (Human)); test: Inhibition of KLKB1 endpoint assay; conditions: fluorogenic substrate H-Pro-Phe-Arg-AMC, 1 hr at Room Temperature, read-out: IC50 measurements for the inhibition of human Plasma Kallikrein (KLKB1)
recorded.endpoint: IC50 (µM)

compound: Nc1nccc2c1CC[C@H]2NC(=O)c1cnn(Cc2ccc(N3CC4C(C3)C4(F)F)nc2)c1 (stereo partly drawn)
IC50, µM: 0.001
//
compound: Nc1ccc2c(n1)CC[C@H]2NC(=O)c1cn(Cc2ccc(N3CC4CC4C3)nc2C(F)(F)F)nn1 (stereo partly drawn)
IC50, µM: 0.014
//
compound: Cc1cc(Cn2cc(C(=O)N[C@@H]3CCc4c3ccnc4N)nn2)ccc1N1CCN2CCCCC2C1=O (single isomer, unassigned) [Example 56]
IC50, µM: 1.2

P: Nc1nccc2c1CCC2NC(=O)c1cnn(Cc2ccc(CN3C[C@@H]4C[C@@H]4C3=O)cc2)c1 (single isomer, unassigned) [Example 49]
Q: Nc1cc(C(F)(F)F)c2c(n1)CCC2NC(=O)c1cnn(Cc2ccc(CN3CC4CC4C3=O)cc2)c1 (stereo not drawn)
Sorting by IC50 in descending order, would P or Q appear first? Bench note: the answer is the label of the chosen record.
Q
(Q: 3.3 µM, P: 0.002 µM)

P: Nc1ccc2c(n1)CCC2NC(=O)c1cn(Cc2ccc(N3CCN4CCCCC4C3=O)cc2)nn1 (stereo not drawn)
Q: Nc1ccc2c(n1)CC[C@H]2NC(=O)c1cnn(Cc2ccc(N3CC4CC4C3)nc2)c1 (stereo partly drawn)
R: Nc1ccc2c(n1)CCC2NC(=O)c1cn(Cc2ccc(Cn3cc4c(n3)CCOC4)cc2)nn1 (stereo not drawn)
S: Cc1cc(Cn2cc(C(=O)N[C@@H]3CCc4c3ccnc4N)nn2)ccc1N1CCN2CCCCC2C1=O (single isomer, unassigned) [Example 57]
T: Cc1cc(CN2CC3CC3C2=O)ccc1Cn1cc(C(=O)N[C@@H]2CCc3nc(N)ccc32)cn1 (stereo partly drawn)
Please list these compounds in decreasing order of IC50. Order the labels as requested and list them.
S, P, R, T, Q
(S: 6.2 µM, P: 3.2 µM, R: 0.56 µM, T: 0.055 µM, Q: 0.008 µM)

I: Nc1ccc2c(n1)CCC2NC(=O)c1cn(Cc2ccc(N3CC4CCCN4C3=O)cc2)nn1 (stereo not drawn)
II: Nc1ccc2c(n1)CC[C@H]2NC(=O)c1cnn(Cc2ccc(N3CC4CC4C3)nc2C(F)(F)F)c1 (stereo partly drawn)
// max by IC50 over [ I , II ] Identify your pick by its label.
I

A: Cc1cc(Cn2cc(C(=O)N[C@@H]3CCc4nc(N)ccc43)cn2)ccc1CN1CC2CC2C1=O (single isomer, unassigned) [Example 67]
B: Nc1ccc2c(n1)CC[C@H]2NC(=O)c1cnn(Cc2ccc(CN3CC4CC4C3=O)c(C(F)(F)F)c2)c1 (stereo partly drawn)
Please compare: A and B . Report which one has the smaller IC50 value. I would appreciate it if you answered with the label of your choice.
B
